# target.or.test.system: hCE1 (Homo sapiens)
# Sequence (P23141 18-567): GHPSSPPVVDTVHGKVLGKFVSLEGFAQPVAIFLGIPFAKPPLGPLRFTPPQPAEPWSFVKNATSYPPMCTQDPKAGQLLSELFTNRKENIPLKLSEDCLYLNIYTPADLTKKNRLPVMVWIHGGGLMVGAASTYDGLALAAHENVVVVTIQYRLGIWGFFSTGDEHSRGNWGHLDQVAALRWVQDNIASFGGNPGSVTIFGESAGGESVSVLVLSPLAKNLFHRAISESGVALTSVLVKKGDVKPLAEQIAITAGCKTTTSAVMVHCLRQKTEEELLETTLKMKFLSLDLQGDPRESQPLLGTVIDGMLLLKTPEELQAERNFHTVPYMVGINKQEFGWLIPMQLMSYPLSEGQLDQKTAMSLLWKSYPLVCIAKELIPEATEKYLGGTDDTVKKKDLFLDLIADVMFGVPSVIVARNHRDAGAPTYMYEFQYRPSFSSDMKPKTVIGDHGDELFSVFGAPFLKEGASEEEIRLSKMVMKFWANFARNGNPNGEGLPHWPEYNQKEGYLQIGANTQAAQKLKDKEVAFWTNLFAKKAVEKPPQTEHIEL
# assay.method.text: hCE1 inhibition, o-nitrophenylacetate hydrolysis
# Type: biochemical
# IC50 per record follows

{"columns": ["molecule", "target.or.test.system", "IC50"],
 "data": [
  ["Cc1ccccc1NC(=O)Oc1ccc2c(c1)[C@]1(C)CCN(C)[C@@H]1N2C [Tolserine, tolserine]", "hCE1 (Homo sapiens)", "> 100 µM"],
  ["COc1ccc2c3c1O[C@H]1C[C@@H](O)C=C[C@@]31CCN(C)C2 [Galantamine, galantamine]", "hCE1 (Homo sapiens)", "> 100 µM"],
  ["CC(C)c1ccc(NC(=O)Oc2ccc3c(c2)[C@]2(C)CCN(CCc4ccccc4)[C@@H]2N3C)cc1 [Phenethylcymserine, phenethylcymserine]", "hCE1 (Homo sapiens)", "20.5 µM"],
  ["COc1cc2c(cc1OC)C(=O)C(CC1CCN(Cc3ccccc3)CC1)C2 (stereo not shown) [Donepezil, donepezil]", "hCE1 (Homo sapiens)", "> 100 µM"]
]}
